experiment: soluble on expression in E. coli; label from the status in PepcDB or PDB records
MEASURE: soluble on expression in E. coli

INSERT INTO measurements (residues, assay_result) VALUES
  ('MGSDKIHHHHHHMPRPRRSQVSVEDTPMYHCCSRVVRRAYLCGDDKFSGKNYDHRRGWVEAQLLKLAEVFAIDVAAYAVMSNHLHVVLSIDIYQANRWTGIEVINQWHLLFKGTDITQKFAKGETLEDYEALELTYTIALYRSRLSDISWFMRALNEPIARRANEEDECTGRFWEGRFKSQALLDEAAVLACMVYVDLNPIRSTIAKTPETSDFTSIKRRITAALNGTQPKALLPFVGNERKDMPKGLTFHLKDYLQLVEDTGKAVRNDKRGCISPNSHSILNRLNIPADNWLKIINEFGKLFKGPVGTLQELTAYCEHLEKQRRHYCHACQHLAAS', 'not soluble'),
  ('MQFSYVNPTMIHFGQGQIASIRRDIPKDHKVLVLYGGGSIKRNGVYDQVVEALSEHQWVEFSGVEPNPTKETLDKAVHIVKNQHIDFILAVGGGSVIDGSKYVAAAAFYEGDGWDILTGQHTVKQATPIGAILTLPATGSESNTGAVITKAETQDKLAFLSPAVQPRFAVLDPDVMKSLPERQLVNGLVDAWVHVCEQYLTLPTQAMVQEGYAEVLLRNLLALGADFVNRDNDAWRANLMWTANQALNGLIGTGVPQDWATHMIGHELTALWHVDHARSLAIVQPWLLRNQLKHKKAKLEQMGKNVFGLPQSDDLAEKTIAAIEAFYHQLNVATQFGEHGMAKEAAVDAVLQQLTAHGMHKLGEQGTIDLQESRKILENALY', 'not soluble');
